ASSAYED_TARGET: T1, β-catenin (UniProt P35222 134-665, limits assumed, biotinylated in the SPR and plate assays)
T1 construct: also called beta catenin; biotinylated β-catenin
T1 sequence (looked up): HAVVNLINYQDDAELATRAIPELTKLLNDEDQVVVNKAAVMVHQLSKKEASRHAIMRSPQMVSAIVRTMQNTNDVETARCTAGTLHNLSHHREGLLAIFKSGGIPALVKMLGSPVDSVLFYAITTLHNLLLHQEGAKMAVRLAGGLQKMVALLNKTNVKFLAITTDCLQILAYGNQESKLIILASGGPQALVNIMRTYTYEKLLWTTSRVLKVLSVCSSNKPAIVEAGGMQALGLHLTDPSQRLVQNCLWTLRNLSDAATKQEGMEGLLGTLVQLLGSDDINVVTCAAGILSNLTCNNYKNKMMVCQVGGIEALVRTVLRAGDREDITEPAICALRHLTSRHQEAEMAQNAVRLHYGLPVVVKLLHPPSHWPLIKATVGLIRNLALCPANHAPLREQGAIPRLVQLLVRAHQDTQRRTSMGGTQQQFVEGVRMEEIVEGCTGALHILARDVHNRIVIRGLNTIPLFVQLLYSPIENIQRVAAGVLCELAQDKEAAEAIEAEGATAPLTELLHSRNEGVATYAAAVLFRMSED
ASSAY_EXPLANATION: SPR (Biacore)
For each record, check the reported Kd: if it is below 1000 nM write y, else write n.

Sample answers from the record:
KMSRMWFLISFWRG (HELM PEPTIDE1{K.M.S.R.M.W.F.L.I.S.F.W.R.G}$PEPTIDE1,PEPTIDE1,1:R3-14:R2$$$V2.0; SMILES CC[C@H](C)[C@@H]1NC(=O)[C@H](CC(C)C)NC(=O)[C@H](Cc2ccccc2)NC(=O)[C@H](Cc2c[nH]c3ccccc23)NC(=O)[C@H](CCSC)NC(=O)[C@H](CCCNC(=N)N)NC(=O)[C@H](CO)NC(=O)[C@H](CCSC)NC(=O)[C@@H](N)CCCCNC(=O)CNC(=O)[C@H](CCCNC(=N)N)NC(=O)[C@H](Cc2c[nH]c3ccccc23)NC(=O)[C@H](Cc2ccccc2)NC(=O)[C@H](CO)NC1=O) [SEQ ID NO: 24]
y
H-MWESILDEHMQRVWRG-OH [SEQ ID NO: 23]
n

Ask | API: query returns whether the binder falls strictly under 1000 nM in Kd. Query: H-MWFLISFWG-OH [SEQ ID NO: 17]
Reply | y

Ask | Quick check: does KMSRMWYLISFWG (HELM PEPTIDE1{K.M.S.R.M.W.Y.L.I.S.F.W.G}$PEPTIDE1,PEPTIDE1,1:R3-13:R2$$$V2.0; SMILES CC[C@H](C)[C@@H]1NC(=O)[C@H](CC(C)C)NC(=O)[C@H](Cc2ccc(O)cc2)NC(=O)[C@H](Cc2c[nH]c3ccccc23)NC(=O)[C@H](CCSC)NC(=O)[C@H](CCCNC(=N)N)NC(=O)[C@H](CO)NC(=O)[C@H](CCSC)NC(=O)[C@@H](N)CCCCNC(=O)CNC(=O)[C@H](Cc2c[nH]c3ccccc23)NC(=O)[C@H](Cc2ccccc2)NC(=O)[C@H](CO)NC1=O) [SEQ ID NO: 27] have Kd under 1000 nM?
Reply | y

Ask | Kd under 1000 nM? Item: H-MWESILDEHVQRVWG-OH [SEQ ID NO: 22]
Reply | n
